- test.target: recombinant human oxytocin receptors (Homo sapiens)
- Construct: expressed in transfected cells; host or cells: HEK-293, transient expression; lysed and homogenized cells
- Sequence (P30559 whole entry): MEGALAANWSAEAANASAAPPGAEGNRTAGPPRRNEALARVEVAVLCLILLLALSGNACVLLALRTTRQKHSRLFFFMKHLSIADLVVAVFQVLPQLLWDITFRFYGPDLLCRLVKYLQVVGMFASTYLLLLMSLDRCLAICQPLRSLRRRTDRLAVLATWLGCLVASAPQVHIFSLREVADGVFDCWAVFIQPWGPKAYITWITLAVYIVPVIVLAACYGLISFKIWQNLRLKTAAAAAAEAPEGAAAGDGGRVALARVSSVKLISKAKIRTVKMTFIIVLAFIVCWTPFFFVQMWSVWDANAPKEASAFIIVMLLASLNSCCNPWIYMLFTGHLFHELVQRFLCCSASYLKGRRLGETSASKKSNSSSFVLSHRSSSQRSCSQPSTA
- test.name: Oxytocin receptor binding assay (3H-oxytocin, HEK-293 cells)
- setup.conditions: selectivity quotient, human OT vs human V1b
- Protocol: The residue was taken up in ice-cold lysis buffer (50 mM Tris-HCl, 10% glycerol, pH 7.4 and Roche complete protease inhibitor) and subjected to an osmotic shock at 4° C. for 20 minutes. […] On the day of the experiment, the cells were thawed, diluted with incubation buffer and homogenized using a Multipette Combitip (Eppendorf, Hamburg). […] The bound radioactivity was determined by liquid scintillation measurement in a Tricarb Beta counter, model 2000 or 2200CA (Packard).
result.type: Ki(h-OT)/Ki(h-V1b)*

>>> reported("CCOc1ncccc1C1(NCc2ccc(N3CCNCC3)cc2)C(=O)N(S(=O)(=O)c2ccc(OC)cc2OC)c2ccc(C#N)cc21 (stereo not drawn)")
"+ (10-<25)"
>>> reported("CCOc1ncccc1C1(Nc2ccc(C(=O)N3CCN(C)CC3)cc2)C(=O)N(S(=O)(=O)c2ccc(OC)cc2)c2ccc(I)cc21 (stereo not drawn)")
"+ (10-<25)"

---

- test.target: human vasopressin V1a receptor (Homo sapiens)
- Sequence (P37288 whole entry): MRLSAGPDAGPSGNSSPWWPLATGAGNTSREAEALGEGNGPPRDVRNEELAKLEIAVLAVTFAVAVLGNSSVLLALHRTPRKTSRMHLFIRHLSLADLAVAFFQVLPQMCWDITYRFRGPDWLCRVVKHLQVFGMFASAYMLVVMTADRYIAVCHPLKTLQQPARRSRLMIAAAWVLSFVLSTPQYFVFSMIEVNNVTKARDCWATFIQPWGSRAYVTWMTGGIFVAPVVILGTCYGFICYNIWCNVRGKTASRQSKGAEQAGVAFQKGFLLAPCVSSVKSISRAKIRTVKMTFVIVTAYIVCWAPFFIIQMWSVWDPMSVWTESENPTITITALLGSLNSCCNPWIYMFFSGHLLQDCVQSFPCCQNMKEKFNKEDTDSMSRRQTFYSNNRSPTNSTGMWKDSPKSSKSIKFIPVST
- test.name: Vasopressin V1a receptor binding assay (125I-AVP displacement, CHO-K1 membranes)
- setup.conditions: selectivity quotient, human V1a vs human V1b
result.type: Ki(h-V1a)/Ki(h-V1b)*

>>> reported("CCOc1ncccc1C1(OC(=O)c2ccc(N3CCN(C)CC3)cc2)C(=O)N(S(=O)(=O)c2ccc(OC)cc2OC)c2ccc(C#N)cc21 (stereo not shown)")
"+++ (>75)"
>>> reported("CCOc1ncccc1C1(NCc2ccc(N3CCN(C)CC3)cc2)C(=O)N(S(=O)(=O)c2ccc(OC)cc2)c2cc(F)c(C#N)cc21 (stereo not shown)")
"+++ (>75)"

---

- test.target: human vasopressin V1a receptor (Homo sapiens)
- test.name: Vasopressin V1a receptor binding assay (125I-AVP displacement, CHO-K1 membranes)
- setup.conditions: selectivity quotient, human V1a vs human V1b
result.type: Ki(h-V1a)/Ki(h-V1b)*

>>> reported("CCN1CCN(c2ccc(NC3(c4cccnc4OCC(F)F)C(=O)N(S(=O)(=O)c4ccc(OC)cc4)c4ccc(C#N)cc43)cc2)CC1 (centres unmarked)")
"++ (25-75)"
>>> reported("CCOc1ncccc1C1(NCc2ccc(N3CCN(C)CC3)cc2)C(=O)N(S(=O)(=O)c2cccc(OC)c2)c2ccc(C#N)cc21 (centres unmarked)")
"++ (25-75)"
>>> reported("CCOc1ncccc1C1(Nc2ccc(C(=O)N3CCN(C)CC3)cc2)C(=O)N(S(=O)(=O)c2ccc(OC)cc2)c2ccc(I)cc21 (centres unmarked)")
"++ (25-75)"
>>> reported("CCOc1ncccc1C1(Nc2ccc(N3CCN(CC)CC3)cc2)C(=O)N(S(=O)(=O)c2ccc(OC)cc2)c2ccc(C#N)cc21 (centres unmarked)")
"++ (25-75)"
